- protocol_summary: in-vivo antitumor activity against transplanted mouse P-388 leukemia (NCI test)
- condition_context: mouse, in vivo; every 3rd day for 3 injections, ip; read-out: maximum tolerated dose (no day 5 or earlier deaths due to toxicity)
readout_label: MTD
Answer shape: numeric part, then the unit.

Kindly note the recorded MTD for CNC1COC(OCC2OC(n3c4c(Cl)cccc4c4c5c(c6c7ccccc7[nH]c6c43)C(=O)N(C)C5=O)C(O)C(O)C2OC)CC1O (stereo not shown) , which is 2 mg/kg

This collection of values is drawn from patent US4743594A.
